# tested_system: Endothelin A receptor (Oryctolagus cuniculus)
# test_method_notes: Binding affinity against Endothelin A receptor in rabbit renal artery vascular smooth muscle membrane (ET-A)
Where a SMILES comes first, the peptide text is derived from it. Bridges are numbered along the chain shown (N, C = ends). [ ]: non-standard residue; d: D form. Ava = NCCCCC(=O)O
Measured IC50 by item
Unit µM implied. Number only.

Dear colleague, please send me the reported IC50 for CC[C@H](C)[C@H](NC(=O)[C@H](CC(=O)O)NC(=O)[C@H](CC(C)C)NC(=O)[C@H](Cc1c[nH]cn1)NC(=O)[C@@H]1CSSC[C@H](N)C(=O)N[C@@H](CO)C(=O)N[C@@H](CO)C(=O)N[C@@H](C(C)C)C(=O)N[C@@H](Cc2ccc(O)cc2)C(=O)N[C@@H](Cc2ccccc2)C(=O)N1)C(=O)N[C@H](C(=O)N[C@@H](Cc1c[nH]c2ccccc12)C(=O)O)[C@@H](C)CC (H-CSSVYFCHLDIIW-OH; disulfide 1-7) when you can. 2

***
Dear colleague, please send me the reported IC50 for CC[C@H](C)[C@H](NC(=O)[C@H](CC(=O)O)NC(=O)[C@H](CC(C)C)NC(=O)[C@H](Cc1c[nH]cn1)NC(=O)[C@@H]1CSSC[C@H](N)C(=O)N[C@@H](CO)C(=O)NCCCCC(=O)N[C@@H](C(C)C)C(=O)N[C@@H](Cc2ccc(O)cc2)C(=O)N[C@@H](Cc2ccccc2)C(=O)N1)C(=O)N[C@H](C(=O)N[C@@H](Cc1c[nH]c2ccccc12)C(=O)O)[C@@H](C)CC (H-CS[Ava]VYFCHLDIIW-OH; disulfide 1-7) when you can. 2.5

Dear colleague, please send me the reported IC50 for CC[C@H](C)[C@H](NC(=O)[C@H](CC(=O)O)NC(=O)[C@H](CC(C)C)NC(=O)[C@H](Cc1c[nH]cn1)NC(=O)[C@@H]1CSSC[C@H](N)C(=O)N[C@@H](CO)C(=O)N[C@@H](C(C)C)C(=O)N[C@@H](Cc2ccc(O)cc2)C(=O)N[C@@H](Cc2ccccc2)C(=O)N1)C(=O)N[C@H](C(=O)N[C@@H](Cc1c[nH]c2ccccc12)C(=O)O)[C@@H](C)CC (H-CSVYFCHLDIIW-OH; disulfide 1-6) when you can. 3.8

----------
# tested_system: Endothelin A receptor (Oryctolagus cuniculus)
# test_method_notes: Binding affinity against Endothelin A receptor in rabbit renal artery vascular smooth muscle membrane (ET-A)
Where a SMILES comes first, the peptide text is derived from it. Bridges are numbered along the chain shown (N, C = ends). [ ]: non-standard residue; d: D form. Aoc = NCCCCCCCC(=O)O
readout_label: pIC50
Convention used: pIC50 is expressed as -log10 of the molar concentration.

Dear colleague, please send me the reported pIC50 for CC[C@H](C)[C@H](NC(=O)[C@H](CC(=O)O)NC(=O)[C@H](CC(C)C)NC(=O)[C@H](Cc1cnc[nH]1)NC(=O)[C@@H]1CSSC[C@H](N)C(=O)N[C@@H](CO)C(=O)NCCCCCCCC(=O)N[C@@H](C(C)C)C(=O)N[C@@H](Cc2ccc(O)cc2)C(=O)N[C@@H](Cc2ccccc2)C(=O)N1)C(=O)N[C@H](C(=O)N[C@@H](Cc1c[nH]c2ccccc12)C(=O)O)[C@@H](C)CC (H-CS[Aoc]VYFCHLDIIW-OH; disulfide 1-7) when you can. 5.74
